// data source = patent US12162840B2

Assignment: determine reported Herbicidal activity, SIDSP for the given molecules.
system: warm season plant species; assay: B2 Post-emergence efficacy Test 2, warm season plant species; type: in vivo; conditions: Sida spinosa, 500 g/Ha, 15 days after application, 0-100 scale, 0=no damage, 100=total kill

// known answers, use as guide
INSERT INTO assay_data (smi, parameter, reportedmeasurement) VALUES
  ('Cc1nn(C)c(=O)c(-c2c(F)ccc(Cl)c2CCc2ccc(F)cc2)c1O', 'Herbicidal activity, SIDSP', 90),
  ('Cc1nn(C)c(=O)c(-c2c(F)ccc(Cl)c2CCc2ccccc2C(F)(F)F)c1O', 'Herbicidal activity, SIDSP', 100),
  ('Cc1nn(C)c(=O)c(-c2c(F)ccc(Cl)c2CCc2ccc(Cl)cc2)c1OC(=O)C(C)C', 'Herbicidal activity, SIDSP', 100),
  ('Cc1nn(C)c(=O)c(-c2c(F)ccc(Cl)c2CCc2ccc(F)cc2)c1OC(=O)C(C)C', 'Herbicidal activity, SIDSP', 100);

Consider the additional molecule presented here.
Inquiry: What value of measured Herbicidal activity, SIDSP is listed for Cc1nn(C)c(=O)c(-c2c(F)ccc(Cl)c2CCc2ccc(C#N)cc2)c1O ?
Reply text: 100
